B1: Glucocorticoid receptor, residues 419 to 494; numbered along this chain, P04150 (parent)
chain: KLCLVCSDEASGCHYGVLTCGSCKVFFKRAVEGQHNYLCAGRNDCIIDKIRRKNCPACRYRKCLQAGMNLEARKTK

Variants of: B1
Assay: abundance fitness (aPCA) (normalised: wild type 0, dead -1); higher = more abundant; growth selection in yeast, the domain comes from the species named
Details: Homo sapiens
Assign Condition met to entries whose abundance fitness meets or exceeds -0.08; assign Condition not met to the rest.

VARIANT_ID: I46Q
DISCRETE_LABEL: Condition met
--
VARIANT_ID: N43Q
DISCRETE_LABEL: Condition met
--
VARIANT_ID: G33V
DISCRETE_LABEL: Condition met
--
VARIANT_ID: K24Q
DISCRETE_LABEL: Condition met
--
VARIANT_ID: E9F
DISCRETE_LABEL: Condition not met
--
VARIANT_ID: V25C
DISCRETE_LABEL: Condition met
--
VARIANT_ID: S7V
DISCRETE_LABEL: Condition not met
--
VARIANT_ID: K74L
DISCRETE_LABEL: Condition met
--
VARIANT_ID: Y15I
DISCRETE_LABEL: Condition not met
--
VARIANT_ID: I50S
DISCRETE_LABEL: Condition met
--
VARIANT_ID: L2R
DISCRETE_LABEL: Condition met
--
VARIANT_ID: N36L
DISCRETE_LABEL: Condition met
--
VARIANT_ID: R73Q
DISCRETE_LABEL: Condition met
--
VARIANT_ID: N43W
DISCRETE_LABEL: Condition met
--
VARIANT_ID: Y37L
DISCRETE_LABEL: Condition met
--
VARIANT_ID: Y60L
DISCRETE_LABEL: Condition met
--
VARIANT_ID: R61Q
DISCRETE_LABEL: Condition met
--
VARIANT_ID: G16C
DISCRETE_LABEL: Condition not met
--
VARIANT_ID: N54F
DISCRETE_LABEL: Condition met
--
VARIANT_ID: V31L
DISCRETE_LABEL: Condition met
--
VARIANT_ID: G16S
DISCRETE_LABEL: Condition not met
--
VARIANT_ID: N69H
DISCRETE_LABEL: Condition met
--
VARIANT_ID: K1M
DISCRETE_LABEL: Condition met
--
VARIANT_ID: C63G
DISCRETE_LABEL: Condition met
--
VARIANT_ID: A10P
DISCRETE_LABEL: Condition met
--
VARIANT_ID: D44H
DISCRETE_LABEL: Condition not met
--
VARIANT_ID: R61E
DISCRETE_LABEL: Condition met
--
VARIANT_ID: Q65C
DISCRETE_LABEL: Condition not met
--
VARIANT_ID: K28D
DISCRETE_LABEL: Condition met
--
VARIANT_ID: C45T
DISCRETE_LABEL: Condition not met
--
VARIANT_ID: T19P
DISCRETE_LABEL: Condition not met
--
VARIANT_ID: H35G
DISCRETE_LABEL: Condition met
--
VARIANT_ID: L64T
DISCRETE_LABEL: Condition met
--
VARIANT_ID: V5T
DISCRETE_LABEL: Condition not met
--
VARIANT_ID: C58E
DISCRETE_LABEL: Condition not met
--
VARIANT_ID: K49Y
DISCRETE_LABEL: Condition met
--
VARIANT_ID: G41S
DISCRETE_LABEL: Condition met

The measured values listed here are drawn from the Human Domainome abundance scans (Beltran et al. 2025).
